- Procedure summary: Ophthalmic formulations based on polyethylene glycol series vehicles: composition and state (Example 7)
- Assay type: physicochemical
- Stated conditions: Table 16: 2 mg/mL; Polyethylene Glycol 400 5, Poloxamer 188 1, Hydroxypropyl-β-cyclodextrin 6, Gellan Gum Gelrite 0.15, Tris-HCl Buffer (pH 6.8) 25mM
- Description: In the following ophthalmic formulation preparation examples, "solution" refers to a clear, transparent liquid without visible insoluble matter. "Near-clear solution" refers to a liquid that appears close to a solution upon visual observation but may contain a small amount of insoluble particles or have a slightly opaque color. "Suspension" refers to a liquid that is visibly turbid or opaque. "Gel" refers to a completely or partially gel-like solid. […]
Measure: State Description: state

[[record]]
molecule = "CCNC(=O)c1cccc(F)c1Sc1ccc2c(/C=C/c3ccc(CN4CCCC4)cn3)n[nH]c2c1 [Compound I-75]"
measure = "State Description: state"
result = "solution"

[[record]]
molecule = "CCN(CC)Cc1ccc(/C=C/c2n[nH]c3cc(Sc4ccc(F)cc4C(=O)NC4CC4)ccc23)nc1 [Compound I-84]"
measure = "State Description: state"
result = "solution"

[[record]]
molecule = "O=C(NC1CC1)c1cccc(F)c1Sc1ccc2c(/C=C/c3ccc(CN4CCCC4)cn3)n[nH]c2c1 [Compound I-67]"
measure = "State Description: state"
result = "solution"

[[record]]
molecule = "CCNC(=O)c1cc(F)ccc1Sc1ccc2c(/C=C/c3cnn(CCCN4CCCC4)c3)n[nH]c2c1 [Compound I-104]"
measure = "State Description: state"
result = "solution"

[[record]]
molecule = "CCNC(=O)c1cc(F)ccc1Sc1ccc2c(/C=C/c3ccc(CN4CCCC4)cn3)n[nH]c2c1 [Compound I-97]"
measure = "State Description: state"
result = "solution"

[[record]]
molecule = "CCNC(=O)c1ccccc1Sc1ccc2c(/C=C/c3ccc(CN(CC)CC)cn3)n[nH]c2c1 [Compound I-86]"
measure = "State Description: state"
result = "solution"


###

- System: melanin
- Procedure summary: Compound binding to melanin
- Format: in vitro ADME
- Stated conditions: cuttlefish (Sepia officinalis), melanin suspension (1 mg/mL), percentage of free drug (not bound to melanin), 2 µM compound, melanin 1 mg/mL in PBS pH 7.4, 37°C
Measure: fraction unbound at 2 h, 2 µM

[[record]]
smi = "CCN(CC)Cc1ccc(/C=C/c2n[nH]c3cc(Sc4ccc(F)cc4C(=O)NC4CC4)ccc23)nc1"
measure = "fraction unbound at 2 h, 2 µM"
result = "> 0.05"

[[record]]
smi = "CNC(=O)c1ccccc1Sc1ccc2c(/C=C/c3cncc(OCCN4CCCC4)c3)n[nH]c2c1"
measure = "fraction unbound at 2 h, 2 µM"
result = "0.01 to 0.05"

[[record]]
smi = "CCN(CC)CCOc1ccc(/C=C/c2n[nH]c3cc(Sc4ccccc4C(=O)NC4CC4)ccc23)nc1"
measure = "fraction unbound at 2 h, 2 µM"
result = "> 0.05"


###

- Tested on: melanin
- Procedure summary: Compound binding to melanin
- Assay type: in vitro ADME
- Stated conditions: cuttlefish (Sepia officinalis), melanin suspension (1 mg/mL), percentage of free drug (not bound to melanin), 2 µM compound, melanin 1 mg/mL in PBS pH 7.4, 37°C
Measure: fraction unbound at 2 h, 2 µM

[[record]]
smi = "O=C(NC1CC1)c1ccccc1Sc1ccc2c(/C=C/c3ccc(CN4CCCC4)cn3)n[nH]c2c1"
result = "> 0.05"

[[record]]
smi = "CCNC(=O)c1cc(F)ccc1Sc1ccc2c(/C=C/c3ccc(CN(CC)CC)cn3)n[nH]c2c1"
result = "> 0.05"

[[record]]
smi = "O=C(NC1CC1)c1cccc(F)c1Sc1ccc2c(/C=C/c3cnn(CCCN4CCCC4)c3)n[nH]c2c1"
result = "0.01 to 0.05"

[[record]]
smi = "CCN(CC)Cc1ccc(/C=C/c2n[nH]c3cc(Sc4ccccc4C(=O)NC)ccc23)nc1"
result = "0.01 to 0.05"

[[record]]
smi = "CNC(=O)c1ccccc1Sc1ccc2c(/C=C/c3ccccn3)ncn2c1"
result = "0.01 to 0.05"

[[record]]
smi = "CNC(=O)c1c(F)cccc1Sc1ccc2c(/C=C/c3ccc(OCCN4CCCC4)cn3)n[nH]c2c1"
result = "> 0.05"

[[record]]
smi = "CCN(CC)Cc1ccc(/C=C/c2n[nH]c3cc(Sc4ccccc4C(=O)NC4CC4)ccc23)nc1"
result = "0.01 to 0.05"

